# measured_target: Sterol O-acyltransferase 1 (Rattus norvegicus) (UniProt O70536)
# procedure_details: Inhibition of Fu5AH Acyl coenzyme A:cholesterol acyltransferase at the concentration of 10 ug/mL
measured_parameter: inhibition (%)

molecule: CCCCCCn1c2c(c(=O)n3nc(-c4ccccc4)cc13)CN(C1CCCCC1)C2=O
value_unit: %
inhibition: 48
//
molecule: O=C1c2c(c(=O)n3nc(-c4ccccc4)cc3n2CC(O)c2ccccc2)CN1C1CCCCC1 (configuration not stated)
value_unit: %
inhibition: 66

I: O=C1c2c(c(=O)n3nc(-c4ccccc4)cc3n2CSc2ccccc2)CN1C1CCCCC1
II: O=C1c2c(c(=O)n3nc(-c4ccccc4)cc3n2CS(=O)(=O)c2ccccc2)CN1C1CCCCC1
III: O=C(Cn1c2c(c(=O)n3nc(-c4ccccc4)cc13)CN(C1CCCCC1)C2=O)c1cccc([N+](=O)[O-])c1
IV: O=C1c2c(c(=O)n3nc(C4CCCCC4)cc3n2Cc2ccccc2)CN1C1CCCCC1
V: CCCCCCCC/C=C\CCCCCCCCN1Cc2c(n(CC(=O)c3ccccc3)c3cc(-c4ccccc4)nn3c2=O)C1=O
QUERY: Which order do these items take when sorted by rising inhibition? List them. Output spec: labels arranged per the requested ranking.
RESULT: V, IV, II, I, III

* * *

# measured_target: Sterol O-acyltransferase 1 (Rattus norvegicus, UniProt O70536)
# Sequence (O70536 whole entry): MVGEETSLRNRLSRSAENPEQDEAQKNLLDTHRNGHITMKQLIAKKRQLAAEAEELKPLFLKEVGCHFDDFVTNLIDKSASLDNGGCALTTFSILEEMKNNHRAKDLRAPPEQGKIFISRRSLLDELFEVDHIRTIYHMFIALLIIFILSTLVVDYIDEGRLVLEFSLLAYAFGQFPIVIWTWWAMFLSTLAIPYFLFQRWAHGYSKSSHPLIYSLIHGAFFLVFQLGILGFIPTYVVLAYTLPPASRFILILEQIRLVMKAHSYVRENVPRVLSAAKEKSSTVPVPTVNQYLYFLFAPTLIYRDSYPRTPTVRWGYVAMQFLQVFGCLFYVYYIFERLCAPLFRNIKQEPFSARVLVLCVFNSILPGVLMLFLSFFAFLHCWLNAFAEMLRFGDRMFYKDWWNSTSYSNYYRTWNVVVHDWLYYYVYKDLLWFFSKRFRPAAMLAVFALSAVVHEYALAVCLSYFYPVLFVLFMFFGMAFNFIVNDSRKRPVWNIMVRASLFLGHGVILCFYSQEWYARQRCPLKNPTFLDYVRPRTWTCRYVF
measured_parameter: IC50 (µM)

Solved entries (count: 3):
compound: C=CCCCCn1c2c(c(=O)n3nc(-c4ccccc4)cc13)CN(C1CCCCC1)C2=O
measured_parameter: IC50
data_value: 10.2
//
compound: CC(C)(C)CC(C)(C)N1Cc2c(n(CC(=O)c3ccccc3)c3cc(-c4ccccc4)nn3c2=O)C1=O
measured_parameter: IC50
data_value: 8.86
//
compound: O=C1c2c(c(=O)n3nc(-c4ccccc4)cc3n2CC2CCCCC2)CN1C1CCCCC1
measured_parameter: IC50
data_value: 8.77

A: O=C(Cn1c2c(c(=O)n3nc(-c4ccccc4)cc13)CN(C1CC3CCC1C3)C2=O)c1ccccc1 (configuration not stated)
B: O=C(Cn1c2c(c(=O)n3nc(-c4ccc(Cl)cc4)cc13)CN(C1CCCCC1)C2=O)c1ccccc1
C: C=CCOc1ccc(-c2cc3n(Cc4ccccc4)c4c(c(=O)n3n2)CN(C2CCCCC2)C4=O)cc1
D: CC1CCCC(N2Cc3c(n(CC(=O)c4ccccc4)c4cc(-c5ccccc5)nn4c3=O)C2=O)C1C (configuration not stated)
QUERY: Which order do these items take when sorted by rising IC50? List them. Output spec: labels arranged per the requested ranking.
RESULT: B, A, D, C
(B: 2.99 µM, A: 4.39 µM, D: 6.67 µM, C: 11.5 µM)

* * *

# measured_target: UniProt O70536
# procedure_details: Inhibition of Fu5AH Acyl coenzyme A:cholesterol acyltransferase at the concentration of 10 ug/mL
measured_parameter: inhibition (%)

Solved entries (count: 5):
compound: O=C(Cn1c2c(c(=O)n3nc(-c4ccccc4)cc13)CN(C1CCCCCCCCCCC1)C2=O)c1ccccc1
inhibition [%]: 39
--
compound: O=C(Cn1c2c(c(=O)n3nc(-c4ccccc4)cc13)CN(C1CCCCC1)C2=O)c1ccc(F)cc1
inhibition [%]: 88
--
compound: O=C(Cn1c2c(c(=O)n3nc(-c4ccccc4)cc13)CN(C1CCCCCCC1)C2=O)c1ccccc1
inhibition [%]: 68
--
compound: CC(C)(C)CC(C)(C)N1Cc2c(n(CC(=O)c3ccccc3)c3cc(-c4ccccc4)nn3c2=O)C1=O
inhibition [%]: 80
--
compound: COc1ccc(C(=O)Cn2c3c(c(=O)n4nc(-c5ccccc5)cc24)CN(C2CCCCC2)C3=O)cc1
inhibition [%]: 52

a: Cn1c2c(c(=O)n3nc(-c4ccccc4)cc13)CN(C1CCCCC1)C2=O
b: COC(=O)Cn1c2c(c(=O)n3nc(-c4ccccc4)cc13)CN(C1CCCCC1)C2=O
c: O=C1c2c(c(=O)n3nc(-c4ccccc4)cc3n2CC2CCCCC2)CN1C1CCCCC1
QUERY: Which order do these items take when sorted by rising inhibition? List them. Output spec: labels arranged per the requested ranking.
RESULT: a, b, c
(a: 13%, b: 25%, c: 97%)

* * *

# measured_target: Sterol O-acyltransferase 1 (Rattus norvegicus)
# procedure_details: Inhibition of Fu5AH Acyl coenzyme A:cholesterol acyltransferase at the concentration of 10 ug/mL
measured_parameter: inhibition (%)

compound: O=C1c2c(c(=O)n3nccc3n2Cc2ccccc2)CN1C1CCCCC1
measured_target: Sterol O-acyltransferase 1 (Rattus norvegicus)
value_unit: %
inhibition: 25
--
compound: CC(C)CC(C)N1Cc2c(n(CC(=O)c3ccccc3)c3cc(-c4ccccc4)nn3c2=O)C1=O (configuration not stated)
measured_target: Sterol O-acyltransferase 1 (Rattus norvegicus)
value_unit: %
inhibition: 85
--
compound: O=C1c2c(c(=O)n3nc(-c4ccccc4)cc3n2Cc2ccccc2)CN1c1ccccc1
measured_target: Sterol O-acyltransferase 1 (Rattus norvegicus)
value_unit: %
inhibition: 18
--
compound: O=C1c2c(c(=O)n3nc(-c4ccc(O)cc4)cc3n2Cc2ccccc2)CN1C1CCCCC1
measured_target: Sterol O-acyltransferase 1 (Rattus norvegicus)
value_unit: %
inhibition: 33

A: CC(C(=O)c1ccccc1)n1c2c(c(=O)n3nc(-c4ccccc4)cc13)CN(C1CCCCC1)C2=O (configuration not stated)
B: O=C1c2c(c(=O)n3ncc(-c4ccccc4)c3n2Cc2ccccc2)CN1C1CCCCC1
C: CC(c1ccccc1)N1Cc2c(n(CC(=O)c3ccccc3)c3cc(-c4ccccc4)nn3c2=O)C1=O (configuration not stated)
D: COc1ccc(CN2Cc3c(n(CC(=O)c4ccccc4)c4cc(-c5ccccc5)nn4c3=O)C2=O)cc1
QUERY: Please list these compounds in decreasing order of inhibition. Output spec: labels arranged per the requested ranking.
RESULT: A, C, B, D

* * *

# measured_target: Sterol O-acyltransferase 1 (Rattus norvegicus)
# procedure_details: Inhibition of Fu5AH Acyl coenzyme A:cholesterol acyltransferase at the concentration of 10 ug/mL
measured_parameter: inhibition (%)

smiles_entry: O=C(Cn1c2c(c(=O)n3nc(-c4ccc(Cl)cc4)cc13)CN(C1CCCCC1)C2=O)c1ccccc1
inhibition / %: 85

a: O=C(CCCn1c2c(c(=O)n3nc(-c4ccccc4)cc13)CN(C1CCCCC1)C2=O)c1ccccc1
b: O=C1c2c(c(=O)n3nc(-c4ccccc4)cc3n2Cc2ccccc2)CN1C[C@H]1CC[C@H](O)CC1
c: CCCCCCCCCCCCN1Cc2c(n(CC(=O)c3ccccc3)c3cc(-c4ccccc4)nn3c2=O)C1=O
QUERY: Please list these molecules in decreasing order of inhibition. Output spec: labels arranged per the requested ranking.
RESULT: a, c, b
(a: 78%, c: 39%, b: 23%)
